experiment: Cytotoxicity against c-Met over-expressed human MKN45 cells assessed as cell growth inhibition after 72 hrs by MTT assay; conditions: MKN-45, 72 h
Lab note - cut at 300 nM for IC50: TRUE if strictly below, FALSE if not.

[[record]]
smiles_code = "COc1cc2c(Oc3ccc(NC(=O)c4nn(-c5ccc(F)cc5)c(=O)n4C)cc3F)ccnc2cc1OCCCN1CCCCC1"
assigned_label = "FALSE"


Exam item: Is IC50 strictly under 300 nM for the entry `COc1cc2c(Oc3ccc(NC(=O)c4nn(-c5ccccc5OC(F)(F)F)c(=O)n4C4CC4)cc3F)ccnc2cc1OCCCN1CCN(C)CC1` ?
Marked response: TRUE

Exam item: A record lists `COc1cc2c(Oc3ccc(NC(=O)c4nn(-c5cccc(F)c5)c(=O)n4C)cc3F)ccnc2cc1OCCCN1CCC(C)CC1` . Is its IC50 below 300 nM?
Marked response: TRUE

Exam item: Does `COc1cc2c(Oc3ccc(NC(=O)c4nn(-c5c(C)cccc5C)c(=O)n4C)cc3F)ccnc2cc1OCCCN1CCN(C)CC1` have IC50 strictly under 300 nM?
Marked response: FALSE

Exam item: Does the reported IC50 of `CCn1c(C(=O)Nc2ccc(Oc3ccnc4cc(OCCCN5CCC(C)CC5)c(OC)cc34)c(F)c2)nn(-c2ccccc2OC(F)(F)F)c1=O` stay below 300 nM?
Marked response: TRUE

Exam item: Does the reported IC50 of the following molecule sit strictly below 300 nM? `COc1cc2c(Oc3ccc(NC(=O)c4nn(-c5ccccc5OC(F)(F)F)c(=O)n4C)cc3F)ccnc2cc1OCCCN1CCCCC1`
Marked response: TRUE

Exam item: Lab note: confirm whether the reported IC50 for this molecule is below 300 nM, equality not counting. molecule: `COc1cc2c(Oc3ccc(NC(=O)c4nn(-c5ccccc5)c(=O)n4C)cc3F)ccnc2cc1OCCCN1CCC(C)CC1`
Marked response: FALSE
